Below, each entry is listed with its recorded % of mortality.
Tested on: Swiss mice
Test: Oral toxicity (mortality) in the mouse, Table 1
Assay type: in vivo
Settings: 500 mg/kg, 14 days, 20160 min
Procedure: The mortality percentages caused by the products of the present invention administered orally to Swiss mice are shown in Table 1. The animals, free of specific pathological organism were housed in an air conditioned room from 24 to 48 hours before the start of the experiments. They were divided up into lots of 5 males and 5 females. […] The mortality was recorded at 14 days. […]
Give the value in % but do not write % after it.

Reference set (2 entries):
COMPOUND	% of mortality / %
CN(C)CCc1cc2c(cc1N=Cc1cccs1)OCO2 [COR 01 163]	100
CN(C)CCc1cc2c(cc1N=Cc1cccs1)OCO2 [COR 01 151]	40

Now look at this entry.
GET /value?item= CN(C)CCc1cc2c(cc1N=Cc1cccs1)OCO2 [COR 01 171] &field=% of mortality returns 90
